ASSAY_PROCEDURE: CREB reporter modulators under forskolin, primary screen, cell-based, PC12, CRE-LacZ reporter, forskolin-stimulated (AID 1146);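 note: PC12 cells with 6xCRE LacZ reporter stimulated by forskolin 10 µM; beta-galactosidase reporter signal reflecting CREB driven transcription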
CONDITION_PARAMETERS: luminescence, 4.5 h, higher = more signal, called active from +8 up or from −8 down
Activity calls are given as the source filed them.
Would you mind telling me the reported z-score of each entry?

Request the reported z-score associated with CC(C)C[C@@H]1NC(=O)[C@@H]2C[C@H](C(=O)NCCCCCNC(=O)CS)[C@H](c3cccc(OCCO)c3)N2C1=O
-1.09 (inactive)

Also C[N+](C)(C)CCCC[C@@H]1NC(=O)[C@@H]2C[C@H](C(=O)NCCCCCNC(=O)CS)[C@H](c3ccc(O)cc3)N2C1=O ?
-0.757 (inactive)

Same read-out for COc1ccc([Si](C)(C)[C@H]2[C@H](CC(=O)N(CCO)Cc3ccccc3)O[C@@]3(C(=O)N(Cc4ccc(N5CCOC5=O)cc4)c4ccccc43)[C@@H]2C)cc1 ?
-0.871 (inactive)

Now the same for COCCCNC(=O)[C@@]1(C)c2ccccc2C(=O)N(Cc2cc(F)cc(C(F)(F)F)c2)[C@H]1c1ccc(CO)cc1
-0.883 (inactive)

Next: CO[C@H]1O[C@H](CO)[C@@H](OC(=O)CCc2ccccc2)[C@@H]2OC(=O)[C@H](Cc3ccccc3)C/C=C/C[C@@H](Cc3ccccc3)C(=O)O[C@@H]12
-1.18 (inactive)

Would you mind doing C#CCOc1ccc(C[C@H]2C(=O)O[C@H](Cc3ccccc3)[C@H](/C=C/C3CC3)N2CC#C)cc1 as well?
0.741 (inactive)

Note, next up: Cc1ccc(S[C@]2(C(=O)NC3CC3)CC(=O)N(Cc3ccccc3C(F)(F)F)[C@@H]2c2ccc(CO)cc2I)cc1
-0.479 (inactive)

====

ASSAY_PROCEDURE: anti-His antibody binders, primary screen, artefact control for SMM control protein annotation, biochemical, small-molecule microarray, 635 nm fluorescence (AID 1128);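 note: score merges feature fluorescence with signal-to-noise for each printed compound spot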
CONDITION_PARAMETERS: anti-His Alexa647 antibody binding, higher = more signal
So I've got a bunch of compounds here, and I need their composite z-score values.
Kindly provide the number alone.

Any idea what its composite z-score is? The compound is O=C1c2ccccc2[C@@]2(Cc3ccccc3N(CC(F)(F)F)C2=O)[C@H](c2ccc(CO)cc2)N1Cc1ccccc1C(F)(F)F
-1.58

Also CCCC[C@@H](O)C1=C(C)C[C@H]2C(=O)N(C)C(=O)[C@H]2[C@H]1CO , if possible.
0.33

Repeat for the following compound: COc1ccc(CCNC(=O)[C@@]2(Sc3ccc(C)cc3)CC(=O)N(Cc3ccccc3)[C@@H]2c2ccc(CO)cc2I)cc1
1.06

Also COCCOC(=O)N1C(=O)[C@@]2(c3cc(C#CC4(O)CCCCCC4)ccc31)[C@H](c1ccc(O)cc1)N1[C@H](c3ccccc3)[C@H](c3ccccc3)OC(=O)[C@H]1[C@@H]2C(N)=O , if possible.
1.53

Now try CCN(CC)c1ccc(N2CC=CC34O[C@@H]5C=CCOC(=O)[C@@H]5[C@H]3C(=O)N(C(C)CO)[C@@H]4C2=O)cc1 (stereo partly specified) .
-1.34

Then this compound: COCCOC(=O)N1C(=O)[C@@]2(c3cc(C#CCCO)ccc31)[C@H](c1ccccc1OCCO)N1[C@H](c3ccccc3)[C@H](c3ccccc3)OC(=O)[C@H]1[C@@H]2C(=O)NC[C@H](O)c1ccccc1
2.02
